- Test system: SF-539 CNS
- Test Summary: NCI tumour cell line growth inhibition, 48 h
I'd appreciate it if you could supply TGI values for the items below.

stdin: Value wanted: TGI (SF-539 CNS) of entry C=CCOC1=C(OCC=C)C(C2COC(C)(C)O2)OC1=O (configuration not stated)
stdout: > 100 µM

stdin: So what TGI did CC(C)(O)C1CCC(Nc2ccc3ncc(-c4cccc(C(F)(F)F)c4)n3n2)CC1 (configuration not stated) get with SF-539 CNS?
stdout: 11.2 µM

stdin: API: value(readout= TGI, system= SF-539 CNS, query= O=C(/C=C/c1ccc(Cl)c(Cl)c1)c1ccc(F)cc1 )
stdout: 38.2 µM

stdin: Missing value: TGI, SF-539 CNS, entry CCN1CCN(CC(=O)Nc2nc3ccc(NCc4ccc(Cl)cc4)cc3s2)CC1 . Fill in?
stdout: 3.18 µM

stdin: I'm curious: which TGI was measured for CN1CCN(c2nc(NCCCCNc3ccnc4cc(Cl)ccc34)c3ccccc3n2)CC1 tested on SF-539 CNS?
stdout: 3.25 µM

stdin: Requested read-out TGI, target or system SF-539 CNS, entry COc1cc(/C=C/C(=O)OC2C(O)C3CC(OC(=O)c4cc(OC)c(OC)c(OC)c4)CC2N3C)cc(OC)c1OC (configuration not stated)
stdout: > 50 µM

stdin: # returns recorded TGI (system: SF-539 CNS) for Fc1cccc2cc3ccc4cccc5ccc(c12)c3c45
stdout: > 100 µM

stdin: Enter reported TGI observed with SF-539 CNS for CCCc1c(O)c(=O)c2c(OC)cc(OC)c3c4c(OC)cc(OC)c5c(=O)c(O)c(CCC)c(c1c23)c54
stdout: 11.3 µM

stdin: # get_value(readout= TGI, system= SF-539 CNS) for Nc1ccn(CCO)c(=O)n1
stdout: > 100 µM

stdin: API: value(readout=TGI, system=SF-539 CNS) for record c1cc(CSP234N5CCN2CCN3CCN4CC5)ccc1CSP123N4CCN1CCN2CCN3CC4
stdout: > 100 µM

stdin: Provide value of TGI for this record tested with SF-539 CNS: COc1ccc(-c2nnc(SCC(=O)Nc3ccc(/C(C)=N\O)cc3)n2-c2ccccc2)cc1OC
stdout: 38.9 µM

stdin: Record CCCCCCCCCCCCCCCCCCNc1ccn(C2OC(CO)C(O)C2O)c(=O)n1 (configuration not stated) : what is its TGI with SF-539 CNS?
stdout: > 100 µM

stdin: Provide the documented TGI with SF-539 CNS as the system for Cn1ccc2c(c1=O)C(=O)c1nccc3c1c-2nc1ccccc13
stdout: 3.42 µM

stdin: SF-539 CNS / TGI / CC(=O)OC1COC(n2nc(/C=C/c3ccc(Cl)cc3)c(=O)n(/N=C/c3ccccc3)c2=S)C(OC(C)=O)C1OC(C)=O (configuration not stated) : value?
stdout: > 100 µM

stdin: Give SF-539 CNS TGI for Nc1ncnc2c1ncn2CC(O)C(=O)O (configuration not stated)
stdout: > 100 µM

stdin: Write down the reported TGI of O=C(O)CCC(NC(=O)c1ccc(Nc2cnc3ccc(C(F)(F)F)cc3n2)cc1)C(=O)O (configuration not stated) , test system: SF-539 CNS.
stdout: > 100 µM

stdin: Enter reported TGI observed with SF-539 CNS for c1cc(CCN2CCCCC2)ccn1
stdout: > 100 µM

stdin: Find the measured TGI: item COc1cc(Cn2c(=S)ss/c2=N\C(=S)N(C)C)cc(OC)c1OC , target or system SF-539 CNS.
stdout: > 57.7 µM

stdin: Find the measured TGI: item CN(CC(=O)O)c1ccc(/C=C/c2ccnc3ccccc23)cc1 , target or system SF-539 CNS.
stdout: > 100 µM

stdin: Give SF-539 CNS TGI for COc1cccc(Nc2nc(-c3cccs3)nc3ccc(Br)cc23)c1
stdout: > 100 µM

stdin: Write down the reported TGI of O=C1C=CC(=O)c2c(NCC3CC3)ccc(NCC3CC3)c21 , test system: SF-539 CNS.
stdout: > 100 µM

stdin: Notebook: pull reported TGI for SF-539 CNS, entry Cc1nc2ccc(F)cc2c2c1CCO2
stdout: > 100 µM

###

- System: SF-539 CNS
- Test Summary: NCI tumour cell line growth inhibition, 48 h
Measured Endpoint: TGI

stdin: I'd like to know its TGI. The compound in question is COC1(O)C(=O)c2ccccc2OC1(OC)c1ccccc1 (stereo not given)
stdout: > 100 µM

stdin: Given COC(=O)C1C2C=CC(C2)C1(C(=O)OC)S(=O)CC12CCC(CC1O)C2(C)C (stereo not given) , state its recorded TGI.
stdout: > 100 µM

stdin: Request the reported TGI associated with O=c1c2c(c1=O)C1(SCCCS1)c1cc(Cl)ccc1O2
stdout: > 100 µM

stdin: TGI lookup needed for CCN(CCCN(CC)C(=O)Nc1ccccc1)C(=O)Nc1ccccc1 , thanks.
stdout: > 100 µM

stdin: Reported TGI, compound c1ccc(C(c2ccccc2)[P+](c2ccccc2)(c2ccccc2)c2ccccc2)cc1 : ____
stdout: 6.31 µM

stdin: Item under review: OCC1OC(Oc2cc(O)cc(/C=C/c3ccc(O)cc3)c2)C(O)C(O)C1O (stereo not given) . Reported TGI?
stdout: > 100 µM

stdin: Any idea what its TGI is? The compound is C=CCN(N=O)C(=O)N(CCCC(NC(C)=O)C(=O)NCc1ccccc1)Cc1ccccc1 (stereo not given)
stdout: > 100 µM

stdin: For N#Cc1c(N)nc(N2CCOCC2)c(C#N)c1-c1ccc(Cl)cc1 , what is its reported TGI?
stdout: > 100 µM

stdin: Could you tell me which TGI is on file for COc1cc2c3c(n(CCCNCC(OC)OC)c(=O)c2cc1OC)-c1cc2c(cc1C3=O)OCO2 ?
stdout: 24.9 µM

stdin: Which value of TGI has been reported for Cc1cc(C)nc(NC(=S)Nc2ccccc2Cl)c1 in the records?
stdout: > 100 µM

###

Field: GI50. Provide a value for each of the molecules that follow.
- Test system: SR leukemia
- Test Summary: NCI tumour cell line growth inhibition, 48 h

stdin: State the recorded GI50 for this entry: CC1=CCC(OC(=O)C(C)(C)CCC(O)(C(=O)OC2(C(C)C)CCC3(C)OC3C2)C(C)C)(C(C)C)CC1 (stereo not drawn)
stdout: 266 nM

stdin: Reported GI50, molecule CN(C)c1ccc(-c2cc(-c3ccc(Nc4nc(Nc5ccccc5)nc(Nc5ccc(Cl)cc5)n4)cc3)nc(N)n2)cc1 : ____
stdout: 1390 nM

stdin: // query GI50 value for entry C=CCNCCCN1C(=O)c2ccc3c4c(ccc(c24)C1=O)C(=O)N(CCCNCC=C)C3=O
stdout: 407 nM

stdin: # lookup: GI50 of [C-]#[O+].[C-]#[O+].[C-]#[O+].[C-]#[O+].[Ir].[Ir].[O-]c1ccc2ccccc2c1C=Nc1ccc(N=Cc2c([O-])ccc3ccccc23)cc1
stdout: > 100000 nM

stdin: Consider the molecule shown here: O=C1C=C[C@@]23C[C@@H](Nc4c(O)c5c6c(c42)=NCCC=6C=N5)SC3=C1 What is its recorded GI50?
stdout: 2260 nM

stdin: Field request: GI50 | item: C=CC1=C[C@@H]2[C@@H]3O[C@]4(CC[C@H](O4)[C@@H](C)C[C@@H](O)C3=O)C[C@H](O)C3=NCC[C@@]32CC1
stdout: < 3.33 nM

stdin: Which GI50 value belongs to C/C([O-])=C1\Cc2ccccc2C1=O.C/C([O-])=C1\Cc2ccccc2C1=O.CC[O-].CC[O-].[Ti+4] ?
stdout: 19100 nM

stdin: Which GI50 is listed for O=C(CCCCCCSc1nc(-c2ccccc2)cc(-c2ccccc2)n1)NO ?
stdout: 322 nM

###

- Tested on: SN12C renal
- Test Summary: NCI tumour cell line growth inhibition, 48 h
Measured Endpoint: TGI

stdin: Give the measured TGI of C[C@]12CC[C@@H]3c4ccc(O)cc4CC[C@H]3[C@@H]1CC[C@@H]2NS(=O)(=O)c1cccc(C(F)(F)F)c1 .
stdout: 5.97 µM

stdin: # get_value(readout='TGI', item= C/C(=N\Nc1ccccc1Br)c1cccc(/C(C)=N/Nc2ccccc2Br)n1 )
stdout: > 100 µM

stdin: Could you share which TGI value was measured for CN(C)CCNC(=O)c1ccc(C(=O)NCCN(C)C)c2nc3ccccc3cc12 ?
stdout: 8.96 µM

stdin: Quick check: TGI of O=C(O)CCSCCCN1C(=O)c2ccccc2C1=O ?
stdout: > 100 µM

stdin: Reported TGI, compound C=C[C@H]1CC[C@H]2[C@@H]3CC=C4C[C@@H](OC5OCC(O)C(O)C5O)CC[C@]4(C)[C@H]3CC[C@]12C (some centres undefined) : ____
stdout: 33.2 µM

stdin: I have this compound here, C=CCN(N=O)C(=O)N(CCCC(NC(C)=O)C(=O)NCc1ccccc1)Cc1ccccc1 (centres undefined) , and I need its recorded TGI.
stdout: > 100 µM

stdin: Which TGI value belongs to C(=Nc1ccc(-c2cc(-c3ccccc3)nc3ccc4ccccc4c23)cc1)c1ccccc1 ?
stdout: > 100 µM

stdin: Query (compound): C=CCOc1ccc(/C(N=Nc2ccccc2)=N/NC(=O)c2ccccc2)cc1OC ; field requested: TGI
stdout: > 100 µM

stdin: Sample CCO[C@@H]1CCC(S(=O)c2ccc(C)cc2)=CO1 (some centres undefined) — what was its TGI?
stdout: > 100 µM
